Molecular target: T1, NHERF3_4, Q5T2W1
T1 sequence (Q5T2W1 373-468, limits assumed, looked up): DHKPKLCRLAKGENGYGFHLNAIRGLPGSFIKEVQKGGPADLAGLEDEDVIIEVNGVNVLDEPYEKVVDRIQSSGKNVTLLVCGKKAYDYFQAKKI
Assay: holdup assay
Set-up: key: below the threshold = too weak to quantify, mostly under pKd 3.1 to 4
Conditions: plain residues with an end cap or a label only (N-terminal biotin on a linker: ado-ado)
assay-readout: pKd

Look over these answered cases.
Give a short answer stating reported pKd for RQKEVRESKC [SCN8A, Q9UQD0] . below the threshold

Quick one: give measured pKd for QSGLYESEEL [MYOT, Q9UBF9] below the threshold

Supply reported pKd belonging to this binder: TNSRHGETTV [FZD2, Q14332] below the threshold

State its pKd: DFLSTFHIRI [CIB2, O75838] 3.66

Pending binder:
Given NTANRRTTPV [CACNG2, Q9Y698] , respond with its pKd. 3.5
